Entry source: ChEMBL document CHEMBL4043152

# System: MDA-MB-231
# ASSAY REMARKS: Cytotoxicity against human MDA-MB-231 cells after 72 hrs by SRB assay
# Type: functional, cell-based
# CONDITION DESCRIPTION: MDA-MB-231, 72 h
pIC50 values for the compounds below.
Convention used: pIC50 is expressed as -log10 of the molar concentration.

>>> reading("CC[C@@]1(O)C(=O)OCc2c1cc1n(c2=O)Cc2c-1nc1ccccc1c2CN1CCN(/C(Cc2ccc(F)cc2)=N\\S(=O)(=O)c2ccc3ccccc3c2)CC1")
5.27
>>> reading("CC[C@@]1(O)C(=O)OCc2c1cc1n(c2=O)Cc2c-1nc1ccccc1c2CN1CCN(/C(Cc2ccccc2)=N\\S(=O)(=O)c2ccc3ccccc3c2)CC1")
4.95
>>> reading("CC[C@@]1(O)C(=O)OCc2c1cc1n(c2=O)Cc2c-1nc1ccccc1c2CN1CCN(/C(Cc2ccc(F)cc2)=N\\S(=O)(=O)c2cccnc2)CC1")
5.20

Record `CC[C@@]1(O)C(=O)OCc2c1cc1n(c2=O)Cc2c-1nc1ccccc1c2CN1CCN(/C(Cc2ccccc2)=N\S(=O)(=O)c2ccc(Cl)cc2)CC1` . Reported pIC50: 5.30

Record `CC[C@@]1(O)C(=O)OCc2c1cc1n(c2=O)Cc2c-1nc1ccccc1c2CN1CCN(/C(Cc2ccc(F)cc2)=N\S(=O)(=O)c2ccc(F)cc2)CC1` . Reported pIC50: 4.99

Record `CC[C@@]1(O)C(=O)OCc2c1cc1n(c2=O)Cc2c-1nc1ccccc1c2CN1CCN(/C(Cc2ccc(F)cc2)=N\S(=O)(=O)c2ccc(C)cc2)CC1` . Reported pIC50: 5.22

###

# Tested on: MDA-MB-231
# ASSAY REMARKS: Cytotoxicity against human MDA-MB-231 cells after 72 hrs by SRB assay
# Assay type: functional, cell-based
# CONDITION DESCRIPTION: MDA-MB-231, 72 h
pIC50 values for the compounds below.
Convention used: pIC50 is expressed as -log10 of the molar concentration.

Below: 2 compounds and their reported pIC50.
>>> reading("CC[C@@]1(O)C(=O)OCc2c1cc1n(c2=O)Cc2c-1nc1ccccc1c2CN1CCN(/C(Cc2ccc(OC)cc2)=N\\S(=O)(=O)c2ccc([N+](=O)[O-])cc2)CC1")
5.01
>>> reading("CC[C@@]1(O)C(=O)OCc2c1cc1n(c2=O)Cc2c-1nc1ccccc1c2CN1CCN(/C(Cc2ccccc2)=N\\S(=O)(=O)c2cccnc2)CC1")
5.42

# next compound below
The value of pIC50 recorded for `CC[C@@]1(O)C(=O)OCc2c1cc1n(c2=O)Cc2c-1nc1ccccc1c2CN1CCN(/C(Cc2ccccc2)=N\S(C)(=O)=O)CC1` when tested on MDA-MB-231 reads 5.80

###

# System: MDA-MB-231
# ASSAY REMARKS: Cytotoxicity against human MDA-MB-231 cells after 72 hrs by SRB assay
# Type: functional, cell-based
# CONDITION DESCRIPTION: MDA-MB-231, 72 h
MEASUREMENT TYPE: pIC50
Convention used: pIC50 is expressed as -log10 of the molar concentration.

Below: 2 molecules and their reported pIC50.
>>> reading("CC[C@@]1(O)C(=O)OCc2c1cc1n(c2=O)Cc2c-1nc1ccccc1c2CN1CCN(/C(Cc2ccc(OC)cc2)=N\\S(=O)(=O)CC)CC1")
5.42
>>> reading("CC[C@@]1(O)C(=O)OCc2c1cc1n(c2=O)Cc2c-1nc1ccccc1c2CN1CCN(/C(Cc2ccc(OC)cc2)=N\\S(=O)(=O)c2cccnc2)CC1")
5.30

Record `CC[C@@]1(O)C(=O)OCc2c1cc1n(c2=O)Cc2c-1nc1ccccc1c2CN1CCN(/C(Cc2ccc(OC)cc2)=N\S(=O)(=O)c2ccc(C)cc2)CC1` . Reported pIC50: 5.23

Record `CC[C@@]1(O)C(=O)OCc2c1cc1n(c2=O)Cc2c-1nc1ccccc1c2CN1CCN(/C(Cc2ccccc2)=N\S(=O)(=O)c2ccccc2)CC1` . Reported pIC50: 5.36

Record `CC[C@@]1(O)C(=O)OCc2c1cc1n(c2=O)Cc2c-1nc1ccccc1c2CN1CCN(/C(Cc2ccc(OC)cc2)=N\S(=O)(=O)c2ccc3ccccc3c2)CC1` . Reported pIC50: 5.03

Record `CC[C@@]1(O)C(=O)OCc2c1cc1n(c2=O)Cc2c-1nc1ccccc1c2CN1CCN(/C(Cc2ccccc2)=N\S(=O)(=O)c2cccs2)CC1` . Reported pIC50: 5.40

Record `CC[C@@]1(O)C(=O)OCc2c1cc1n(c2=O)Cc2c-1nc1ccccc1c2CN1CCN(/C(Cc2ccc(F)cc2)=N\S(=O)(=O)c2ccc([N+](=O)[O-])cc2)CC1` . Reported pIC50: 5.45

Record `CC[C@@]1(O)C(=O)OCc2c1cc1n(c2=O)Cc2c-1nc1ccccc1c2CN1CCN(/C(Cc2ccc(F)cc2)=N\S(=O)(=O)CC)CC1` . Reported pIC50: 5.60

Record `CC[C@@]1(O)C(=O)OCc2c1cc1n(c2=O)Cc2c-1nc1ccccc1c2CN1CCN(/C(Cc2ccccc2)=N\S(=O)(=O)CC)CC1` . Reported pIC50: 5.46
